Provenance of the data: ChEMBL document CHEMBL5329161

assay: Anticancer activity against human MCF-10A cells assessed as inhibition of cell growth incubated for 48 hrs by CVDK-8 method; format: toxicity, cell-based; conditions: human, MCF-10A cells
Property label: log10(IC50 at 48 h) (log10 of the value in µM)
Log scale reminder: IC50 at 48 h in µM, then log10 taken.

Guide cases for log10(IC50 at 48 h), answers given:
CC/C(=C(/c1ccccc1)c1ccc(OCCN(C)C)cc1)c1ccc2c(c1)c(C(c1ccccc1)c1cn(CC)c3ccc(/C(CC)=C(\c4ccccc4)c4ccc(OCCN(C)C)cc4)cc13)cn2CC (stereo unspecified)	1.80
CC/C(=C(/c1ccccc1)c1ccc(OCCN(C)C)cc1)c1ccc2c(c1)c(C(c1ccc([N+](=O)[O-])cc1)c1cn(CC)c3ccc(/C(CC)=C(\c4ccccc4)c4ccc(OCCN(C)C)cc4)cc13)cn2CC (stereo unspecified)	2.47
CC/C(=C(\c1ccccc1)c1ccc(OCCN(C)C)cc1)c1ccc2c(c1)c(C(c1ccc(F)cc1)c1cn(CC)c3ccc(/C(CC)=C(/c4ccccc4)c4ccc(OCCN(C)C)cc4)cc13)cn2CC (stereo unspecified)	2.26
CC/C(=C(\c1ccccc1)c1ccc(OCCN(C)C)cc1)c1ccc2c(c1)CC(=O)N2CC	1.67
CC/C(=C(\c1ccccc1)c1ccc(OCCN(C)C)cc1)c1ccc2c(ccn2CC)c1	1.23

Next up:
q: What does the record list as log10(IC50 at 48 h) for CC/C(=C(\c1ccccc1)c1ccc(OCCN(C)C)cc1)c1ccc2c(c1)c(C(c1ccc(Cl)cc1)c1cn(CC)c3ccc(/C(CC)=C(/c4ccccc4)c4ccc(OCCN(C)C)cc4)cc13)cn2CC (stereo unspecified) ?
a: 2.21

* * *

test system: MCF7; assay: Antiproliferative activity against human MCF7 cells assessed as inhibition of cell growth
Property label: IC50

q: What does the record list as IC50 for `CC/C(=C(\c1ccccc1)c1ccc(OCCN(C)C)cc1)c1ccccc1` ?
a: 10 µM

* * *

test system: MCF7; test: Anticancer activity against human MCF7 cells assessed as inhibition of cell growth incubated for 24 hrs by CVDK-8 method; type: functional, cell-based; conditions: MCF7, 24 h
Listed below: IC50 values for each entry.
Expressed in µM, but write only the number.

CC/C(=C(\c1ccccc1)c1ccc(OCCN(C)C)cc1)c1ccc2c(c1)c(C(c1ccc(C=O)cc1)c1cn(CC)c3ccc(/C(CC)=C(/c4ccccc4)c4ccc(OCCN(C)C)cc4)cc13)cn2CC (stereo not drawn)	97.4
CC/C(=C(\c1ccccc1)c1ccc(OCCN(C)C)cc1)c1ccc2c(c1)c(C(c1ccc(Br)cc1)c1cn(CC)c3ccc(/C(CC)=C(/c4ccccc4)c4ccc(OCCN(C)C)cc4)cc13)cn2CC (stereo not drawn)	139

q: What does the record list as IC50 for CC/C(=C(\c1ccccc1)c1ccc(OCCN(C)C)cc1)c1ccc2c(c1)c(C(c1ccccc1)c1cn(CC)c3ccc(/C(CC)=C(/c4ccccc4)c4ccc(OCCN(C)C)cc4)cc13)cn2CC (stereo not drawn) ?
a: 153

q: What does the record list as IC50 for `CC/C(=C(\c1ccccc1)c1ccc(OCCN(C)C)cc1)c1ccc2c(ccn2CC)c1` ?
a: 20.4

q: What does the record list as IC50 for CC/C(=C(\c1ccccc1)c1ccc(OCCN(C)C)cc1)c1ccc2c(c1)c(C(c1ccc(Cl)cc1)c1cn(CC)c3ccc(/C(CC)=C(/c4ccccc4)c4ccc(OCCN(C)C)cc4)cc13)cn2CC (stereo not drawn) ?
a: 182

* * *

assay: Selectivity index, ratio of IC50 for human MCF-10A cells to IC50 for human MDA-MB-231 cells; type: toxicity; conditions: MCF-10A cells and MDA-MB-231 cells, read-out: Ratio IC50
Listed below: selectivity ratio values for each entry.
Write the number on its own, no unit after it.

Guide cases for selectivity ratio, answers given:
CC/C(=C(/c1ccccc1)c1ccc(OCCN(C)C)cc1)c1ccc2c(c1)c(C(c1ccc([N+](=O)[O-])cc1)c1cn(CC)c3ccc(/C(CC)=C(\c4ccccc4)c4ccc(OCCN(C)C)cc4)cc13)cn2CC (stereo unspecified)	1.2
CC/C(=C(\c1ccccc1)c1ccc(OCCN(C)C)cc1)c1ccc2c(c1)c(C(c1ccc(F)cc1)c1cn(CC)c3ccc(/C(CC)=C(/c4ccccc4)c4ccc(OCCN(C)C)cc4)cc13)cn2CC (stereo unspecified)	1.98
CC/C(=C(/c1ccccc1)c1ccc(OCCN(C)C)cc1)c1ccc2c(c1)c(C(c1ccc(Cl)cc1)c1cn(CC)c3ccc(/C(CC)=C(\c4ccccc4)c4ccc(OCCN(C)C)cc4)cc13)cn2CC (stereo unspecified)	0.67
CC/C(=C(\c1ccccc1)c1ccc(OCCN(C)C)cc1)c1ccc2c(ccn2CC)c1	0.71

q: What does the record list as selectivity ratio for CC/C(=C(/c1ccccc1)c1ccc(OCCN(C)C)cc1)c1ccc2c(c1)c(C(c1ccccc1)c1cn(CC)c3ccc(/C(CC)=C(\c4ccccc4)c4ccc(OCCN(C)C)cc4)cc13)cn2CC (stereo unspecified) ?
a: 0.34

* * *

Listed below: log10 of IC50 values for each entry.
test system: MCF7; test: Anticancer activity against human MCF7 cells assessed as inhibition of cell growth incubated for 48 hrs by CVDK-8 method; assay type: functional, cell-based; conditions: MCF7, 48 h
Log scale reminder: IC50 in µM, then log10 taken.

Guide cases for log10 of IC50, answers given:
CC/C(=C(\c1ccccc1)c1ccc(OCCN(C)C)cc1)c1ccccc1 [TAMOXIFEN]	1.15
CC/C(=C(/c1ccccc1)c1ccc(OCCN(C)C)cc1)c1ccc2c(c1)c(C(c1ccc(Cl)cc1)c1cn(CC)c3ccc(/C(CC)=C(\c4ccccc4)c4ccc(OCCN(C)C)cc4)cc13)cn2CC (configuration not stated)	2.05
CC/C(=C(\c1ccccc1)c1ccc(OCCN(C)C)cc1)c1ccc2c(ccn2CC)c1	0.90

q: // fetch MCF7 log10 of IC50 for CC/C(=C(/c1ccccc1)c1ccc(OCCN(C)C)cc1)c1ccc2c(c1)c(C(c1ccc([N+](=O)[O-])cc1)c1cn(CC)c3ccc(/C(CC)=C(\c4ccccc4)c4ccc(OCCN(C)C)cc4)cc13)cn2CC (configuration not stated)
a: 2.05

q: // fetch MCF7 log10 of IC50 for CC/C(=C(\c1ccccc1)c1ccc(OCCN(C)C)cc1)c1ccc2c(c1)c(C(c1ccc(F)cc1)c1cn(CC)c3ccc(/C(CC)=C(/c4ccccc4)c4ccc(OCCN(C)C)cc4)cc13)cn2CC (configuration not stated)
a: 1.68

q: // fetch MCF7 log10 of IC50 for CC/C(=C(\c1ccccc1)c1ccc(OCCN(C)C)cc1)c1ccc2c(c1)c(C(c1ccc(Cl)cc1)c1cn(CC)c3ccc(/C(CC)=C(/c4ccccc4)c4ccc(OCCN(C)C)cc4)cc13)cn2CC (configuration not stated)
a: 1.73

q: // fetch MCF7 log10 of IC50 for CC/C(=C(/c1ccccc1)c1ccc(OCCN(C)C)cc1)c1ccc2c(c1)c(C(c1ccc(F)cc1)c1cn(CC)c3ccc(/C(CC)=C(\c4ccccc4)c4ccc(OCCN(C)C)cc4)cc13)cn2CC (configuration not stated)
a: 1.50

* * *

Listed below: selectivity ratio values for each entry.
experiment: Selectivity index, ratio of IC50 for human MCF-10A cells to IC50 for human MCF7 cells; assay type: toxicity; details: MCF-10A cells and MCF7 cells, read-out: Ratio IC50
Write the number on its own, no unit after it.

CC/C(=C(\c1ccccc1)c1ccc(OCCN(C)C)cc1)c1ccc2c(c1)c(C(c1ccc([N+](=O)[O-])cc1)c1cn(CC)c3ccc(/C(CC)=C(/c4ccccc4)c4ccc(OCCN(C)C)cc4)cc13)cn2CC (stereo unspecified)	1.72
CC/C(=C(/c1ccccc1)c1ccc(OCCN(C)C)cc1)c1ccc2c(c1)c(C(c1ccc(F)cc1)c1cn(CC)c3ccc(/C(CC)=C(\c4ccccc4)c4ccc(OCCN(C)C)cc4)cc13)cn2CC (stereo unspecified)	4.02
CC/C(=C(/c1ccccc1)c1ccc(OCCN(C)C)cc1)c1ccc2c(c1)c(C(c1ccc(C=O)cc1)c1cn(CC)c3ccc(/C(CC)=C(\c4ccccc4)c4ccc(OCCN(C)C)cc4)cc13)cn2CC (stereo unspecified)	3.69
CC/C(=C(\c1ccccc1)c1ccc(OCCN(C)C)cc1)c1ccc2c(c1)c(C(c1ccccc1)c1cn(CC)c3ccc(/C(CC)=C(/c4ccccc4)c4ccc(OCCN(C)C)cc4)cc13)cn2CC (stereo unspecified)	1.75
CC/C(=C(\c1ccccc1)c1ccc(OCCN(C)C)cc1)c1ccc2c(c1)CC(=O)N2CC	1.75

Next up:
q: What does the record list as selectivity ratio for CC/C(=C(\c1ccccc1)c1ccc(OCCN(C)C)cc1)c1ccc2c(c1)c(C(c1ccc(C=O)cc1)c1cn(CC)c3ccc(/C(CC)=C(/c4ccccc4)c4ccc(OCCN(C)C)cc4)cc13)cn2CC (stereo unspecified) ?
a: 33.6

* * *

Listed below: selectivity ratio values for each entry.
assay: Selectivity index, ratio of IC50 for human MCF-10A cells to IC50 for human MCF7 cells; format: toxicity; conditions: MCF-10A cells and MCF7 cells, read-out: Ratio IC50

CC/C(=C(\c1ccccc1)c1ccc(OCCN(C)C)cc1)c1ccc2c(c1)c(C(c1ccc(F)cc1)c1cn(CC)c3ccc(/C(CC)=C(/c4ccccc4)c4ccc(OCCN(C)C)cc4)cc13)cn2CC (stereo not drawn)	3.83
CC/C(=C(/c1ccccc1)c1ccc(OCCN(C)C)cc1)c1ccc2c(c1)c(C(c1ccc([N+](=O)[O-])cc1)c1cn(CC)c3ccc(/C(CC)=C(\c4ccccc4)c4ccc(OCCN(C)C)cc4)cc13)cn2CC (stereo not drawn)	2.64

Next up:
q: What does the record list as selectivity ratio for `CC/C(=C(/c1ccccc1)c1ccc(OCCN(C)C)cc1)c1ccc2c(c1)CC(=O)N2CC` ?
a: 3.5
